ASSAY INFO: Toxicity liver stage against HepG2, at 10uM
Format: cell-based
Set-up: test concentration 10 uM, cell line HepG2-A16-CD81EGFP
EXPERIMENTAL PARAMETERS: human, HepG2-A16-CD81EGFP cells; read-out: INHIBITION
Entries and their cytotoxicity at 10 µM

COMPOUND	cytotoxicity at 10 µM, %
Cc1cc(C)n(C2=NC(NCCCO)c3c(sc4c3CCCC4)N2)n1 (configuration not stated)	14
CCCC(C)NCc1cnc(-c2cccc(C)c2)nc1 (configuration not stated)	-11.7
CN1CCC(NC(=O)CCCc2cc(Cl)sc2Cl)C1=O (configuration not stated)	-2.46
CC(C)Cc1nc(OCC(=O)O)c(C#N)c2c1CCCC2	-6.14
O=C(Nc1ccc(OCc2cccc(F)c2)c(F)c1)C1COCCO1 (configuration not stated)	74.4
CCN(C)C(=O)c1ccc(N(C)Cc2cc(-c3cccnc3)no2)nc1	-7.21
O=C(c1ccc[nH]1)N1CCc2c(COCc3ccncc3)cncc2C1	14.7

Origin of the recorded values: ChEMBL document CHEMBL4513216
